# Tested on: E. coli lipopolysacharide (LPS) induced septic shock/endotoxemia in male balb/c mice
# Assay text: Survival of mice injected with E. coli LPS, treated 30 minutes later with compound i.p., observed three days
# Assay type: in vivo
# Stated conditions: concentration in 1 ml injected i.p.; effect goes down above it
Endpoint label: Concentration with the best therapeutic effect

• CCCCNC [SS9, n-methylbutamine] = 1.0%
• CCCCCN [SS1, amylamine] = 0.3%
• CCC(C)CN (stereo not shown) [SS3, 2-methylbutamine] = 0.1%
• CC(C)CCN [SS2, isoamylamine] = 0.1%

###

# System: E. coli lipopolysacharide (LPS) induced septic shock/endotoxemia in male balb/c mice
# Assay text: Survival of mice injected with E. coli LPS, treated 30 minutes later with compound i.p., observed three days
# Format: in vivo
# Stated conditions: 0.3% in 1 ml i.p., 30 min after LPS 0.4 mg i.p.; three days
Endpoint label: Survival rate (%)

• CCCCCN [SS1, amylamine] = 53
• CCCCNC [SS9, n-methylbutamine] = 54
• CC(C)CCN [SS2, isoamylamine] = 50
• CCC(C)CN (stereo not shown) [SS3, 2-methylbutamine] = 33

###

This listing pairs molecules with measured Survival/total mice.
# Tested on: E. coli lipopolysacharide (LPS) induced septic shock/endotoxemia in male balb/c mice
# Assay text: Survival of mice injected with E. coli LPS, treated 30 minutes later with compound i.p., observed three days
# Format: in vivo
# Stated conditions: 0.1% in 1 ml i.p., 30 min after LPS 0.4 mg i.p.; three days
Endpoint label: Survival/total mice

• CC(C)CCN = 15/18
• CCC(C)CN (stereo not shown) = 16/30
• CCCCNC = 5/13
• CCCCCN = 3/17

###

# Test system: E. coli lipopolysacharide (LPS) induced septic shock/endotoxemia in male balb/c mice
# Assay text: Survival of mice injected with E. coli LPS, treated 30 minutes later with compound i.p., observed three days
# Format: in vivo
# Stated conditions: per body weight of the mouse
Endpoint label: Best treatment volume

- CCC(C)CN (stereo not shown): 0.05 mL/kg
- CCCCCN: 0.15 mL/kg
- CC(C)CCN: 0.05 mL/kg
- CCCCNC: 0.5 mL/kg

###

# Tested on: E. coli lipopolysacharide (LPS) induced septic shock/endotoxemia in male balb/c mice
# Assay text: Survival of mice injected with E. coli LPS, treated 30 minutes later with compound i.p., observed three days
# Format: in vivo
# Stated conditions: 0.1% in 1 ml i.p., 30 min after LPS 0.4 mg i.p.; three days
Below: a set of entries, each annotated with reported Survival rate (%).
Endpoint label: Survival rate (%)

* CC(C)CCN | 83
* CCC(C)CN (stereo not shown) | 53
* CCCCNC | 39
* CCCCCN | 18
